Assign inhibition at 10 µM to each entry below.
target_under_test: CYP3A4 (Homo sapiens (Human), UniProt P08684)
Sequence (P08684 whole entry): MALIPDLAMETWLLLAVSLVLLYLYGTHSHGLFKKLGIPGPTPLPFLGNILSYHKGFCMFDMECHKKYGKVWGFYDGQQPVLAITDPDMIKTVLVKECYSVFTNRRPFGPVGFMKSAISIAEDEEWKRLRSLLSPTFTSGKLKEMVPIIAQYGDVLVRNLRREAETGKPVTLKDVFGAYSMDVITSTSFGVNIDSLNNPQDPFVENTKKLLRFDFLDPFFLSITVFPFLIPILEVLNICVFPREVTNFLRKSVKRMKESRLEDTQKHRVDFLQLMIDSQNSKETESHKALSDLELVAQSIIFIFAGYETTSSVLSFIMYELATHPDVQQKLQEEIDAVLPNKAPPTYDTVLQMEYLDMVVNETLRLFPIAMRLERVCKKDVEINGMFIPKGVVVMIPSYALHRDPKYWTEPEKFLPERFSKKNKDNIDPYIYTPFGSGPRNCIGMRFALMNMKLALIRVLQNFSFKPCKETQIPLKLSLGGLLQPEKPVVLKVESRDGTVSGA
measurement_notes: CYP inhibition, CYP3A4
Assay type: in vitro ADME
details: human; test compound at 10 μM, probe not marked; read-out: % Inhibition (PIN) 3A4
Answers are plain numbers, in %.

For orientation, consider the following solved cases.
1) CC(C)Cc1ccc(-c2nn[nH]n2)c(N2CCN(Cc3nc4ccccc4c(=O)[nH]3)CC2)c1    94.6
2) CC(C)Oc1ccc(-c2nn[nH]n2)c(N2CCN(Cc3nc4ccccc4n3C)CC2)c1    59.5

For every item below, please supply its inhibition at 10 µM.
1. CC(C)Cc1ccc(-c2nn[nH]n2)c(N2CCN(Cc3cccnn3)CC2)c1
2. CCCCNC(=O)NS(=O)(=O)c1ccc(C(F)(F)F)cc1N1CCN(Cc2nc3ccccc3n2C)CC1
3. CC(C)Cc1ccc(-c2nn[nH]n2)c(N2CCN(Cc3ccnn3C)CC2)c1
4. CC(C)Oc1ccc(-c2nn[nH]n2)c(N2CCN(Cc3nc4ccccc4c(=O)[nH]3)CC2)c1

55.3
54.2
49.1
68.2

For every item below, please supply its inhibition at 10 µM.
1. CC(C)Cc1ccc(-c2nn[nH]n2)c(N2CCN(Cc3nccn3C)CC2)c1
2. CC(C)Cc1ccc(-c2nn[nH]n2)c(N2CCN(Cc3ncccn3)CC2)c1
3. CC(C)Cc1cc(F)c(-c2nn[nH]n2)c(N2CCN(Cc3cccnn3)[C@@H](C)C2)c1

1. 38.7
2. 21.1
3. 36

For each of the compounds below, state inhibition at 10 µM.
1. CCC1CN(c2cc(CC(C)C)cc(F)c2-c2nn[nH]n2)CCN1Cc1cccnn1 (stereo not drawn)
2. Cc1cc(CN2CCN(c3cc(CC(C)C)ccc3-c3nn[nH]n3)CC2)no1
3. CC(C)Cc1cc(F)c(-c2nn[nH]n2)c(N2CCN(Cc3cccnn3)C(C)C2)c1 (stereo not drawn)

[8, 50.6, 29.4]
